I'd appreciate it if you could supply log10(IC50) values for the items below.
MEASUREMENT_TARGET: BChE (Homo sapiens)
Sequence (P06276 29-602): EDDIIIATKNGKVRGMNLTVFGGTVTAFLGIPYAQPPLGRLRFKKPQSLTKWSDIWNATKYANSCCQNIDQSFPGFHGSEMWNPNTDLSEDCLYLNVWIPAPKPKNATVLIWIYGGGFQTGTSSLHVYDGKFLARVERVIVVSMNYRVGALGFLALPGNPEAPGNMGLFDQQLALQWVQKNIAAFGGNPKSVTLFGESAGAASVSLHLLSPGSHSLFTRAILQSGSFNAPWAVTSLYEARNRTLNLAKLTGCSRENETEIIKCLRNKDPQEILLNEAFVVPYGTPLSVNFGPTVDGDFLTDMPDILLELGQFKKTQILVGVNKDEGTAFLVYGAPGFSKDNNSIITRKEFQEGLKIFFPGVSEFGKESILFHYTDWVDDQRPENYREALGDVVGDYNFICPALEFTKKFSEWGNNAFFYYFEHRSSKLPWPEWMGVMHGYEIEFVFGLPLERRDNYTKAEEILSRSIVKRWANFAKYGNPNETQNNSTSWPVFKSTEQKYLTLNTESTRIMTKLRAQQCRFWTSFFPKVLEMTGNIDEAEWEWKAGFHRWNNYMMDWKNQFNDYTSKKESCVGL
RUN_DESCRIPTION: biochemical
MEASUREMENT_SETUP: Ellman method, 30 °C, 25 min, pH 8.0; mean ± SD
Plainly stated, the numbers are log10 of IC50 given in µM.

Some compounds with recorded log10(IC50):
Given item CN(C)CCOc1ccc(NC(=O)c2cccnc2)cc1 , the value recorded as its log10(IC50) is 2.39

Given item CN(C)CCOc1ccc(NC(=O)c2ccccc2)cc1 , the value recorded as its log10(IC50) is 2.16

Given item CN(C)CCOc1cccc(NC(=O)c2cccnc2)c1 , the value recorded as its log10(IC50) is 1.34

Given item CN(C)CCOc1cccc(NC(=O)c2ccncc2)c1 , the value recorded as its log10(IC50) is 1.69

Given item CN(C)CCOc1ccccc1NC(=O)c1ccccc1 , the value recorded as its log10(IC50) is 1.26

Given item CN(C)CCOc1ccccc1NC(=O)c1ccncc1 , the value recorded as its log10(IC50) is 1.65

Consider the following items and state reported log10(IC50) for each.
1. CN(C)CCOc1cccc(NC(=O)c2ccccn2)c1
2. CN(C)CCOc1ccccc1NC(=O)c1ccccn1
3. CN(C)CCOc1cccc(NC(=O)c2ccccc2)c1
4. CN(C)CCOc1ccccc1NC(=O)c1cccnc1
5. CN(C)CCOc1ccc(NC(=O)c2ccccn2)cc1

1.56
1.44
1.32
1.52
2.06

Given item CN(C)CCOc1ccc(NC(=O)c2ccncc2)cc1 , the value recorded as its log10(IC50) is 2.39

====

MEASUREMENT_TARGET: AChE (Homo sapiens, UniProt P22303)
Sequence (P22303 32-614): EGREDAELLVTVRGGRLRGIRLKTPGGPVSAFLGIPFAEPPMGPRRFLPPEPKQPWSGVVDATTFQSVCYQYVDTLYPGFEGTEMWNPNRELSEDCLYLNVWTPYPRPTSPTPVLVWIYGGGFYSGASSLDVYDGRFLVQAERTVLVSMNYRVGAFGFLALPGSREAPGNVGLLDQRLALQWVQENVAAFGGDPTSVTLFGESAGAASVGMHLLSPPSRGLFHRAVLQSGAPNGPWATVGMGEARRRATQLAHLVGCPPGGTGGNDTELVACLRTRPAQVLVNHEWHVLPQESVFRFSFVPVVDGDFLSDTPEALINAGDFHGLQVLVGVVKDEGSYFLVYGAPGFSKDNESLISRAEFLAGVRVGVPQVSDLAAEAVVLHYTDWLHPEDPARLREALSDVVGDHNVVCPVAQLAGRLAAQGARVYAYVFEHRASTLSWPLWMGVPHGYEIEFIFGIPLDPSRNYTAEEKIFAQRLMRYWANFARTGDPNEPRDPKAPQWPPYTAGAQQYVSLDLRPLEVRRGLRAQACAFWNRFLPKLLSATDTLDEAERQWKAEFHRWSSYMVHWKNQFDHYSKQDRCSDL
ENDPOINT: Ki

Given item CN(C)CCOc1ccc(NC(=O)c2ccncc2)cc1 [Compound 7a] , the value recorded as its Ki is 4.69 µM

====

I'd appreciate it if you could supply Selectivity for AChE, IC50 (BChE)/IC50 (AChE) values for the items below.
MEASUREMENT_TARGET: AChE (Homo sapiens)
RUN_DESCRIPTION: biochemical
MEASUREMENT_SETUP: ratio IC50 (BChE)/IC50 (AChE)
One number for each entry.

Given item CN(C)CCOc1ccc(NC(=O)c2cccnc2)cc1 , the value recorded as its Selectivity for AChE, IC50 (BChE)/IC50 (AChE) is 42.80

Given item CN(C)CCOc1ccc(NC(=O)c2ccncc2)cc1 , the value recorded as its Selectivity for AChE, IC50 (BChE)/IC50 (AChE) is 99.4

Consider the following items and state reported Selectivity for AChE, IC50 (BChE)/IC50 (AChE) for each.
1. CN(C)CCOc1ccccc1NC(=O)c1cccnc1
2. CN(C)CCOc1cccc(NC(=O)c2ccccn2)c1
3. CN(C)CCOc1cccc(NC(=O)c2ccccc2)c1
4. CN(C)CCOc1cccc(NC(=O)c2cccnc2)c1

1. 0.441
2. 0.492
3. 0.276
4. 1.67

Consider the following items and state reported Selectivity for AChE, IC50 (BChE)/IC50 (AChE) for each.
1. CN(C)CCOc1ccc(NC(=O)c2ccccc2)cc1
2. CN(C)CCOc1cccc(NC(=O)c2ccncc2)c1
3. CN(C)CCOc1ccc(NC(=O)c2ccccn2)cc1

7.84
1.26
24.4

====

MEASUREMENT_TARGET: AChE (Homo sapiens)
RUN_DESCRIPTION: biochemical
MEASUREMENT_SETUP: Ellman method, 30 °C, 25 min, pH 8.0; mean ± SD
I'd appreciate it if you could supply IC50 values for the items below.
Give bare numbers, in µM.

Consider the following items and state reported IC50 for each.
1. CN(C)CCOc1cccc(NC(=O)c2ccccc2)c1
2. CN(C)CCOc1cccc(NC(=O)c2ccccn2)c1
3. CN(C)CCOc1ccccc1NC(=O)c1cccnc1
4. CN(C)CCOc1cccc(NC(=O)c2cccnc2)c1
5. CN(C)CCOc1ccc(NC(=O)c2ccccc2)cc1

75.8
73
75.8
13.2
18.2

====

MEASUREMENT_TARGET: AChE (Homo sapiens)
RUN_DESCRIPTION: biochemical
MEASUREMENT_SETUP: Ellman method, 30 °C, 25 min, pH 8.0; mean ± SD
Description: AChE/BChE activity assays were carried out by Ellman method with slight modification. Each compound was dissolved in Tween 80 and diluted with water to various concentrations immediately before use. […] The IC50 values were calculated by Bliss method and expressed as Mean ± SD of the replicates.
ENDPOINT: IC50 (µM)
One number for each entry, in µM.

Given item CN(C)CCOc1cccc(NC(=O)c2ccncc2)c1 [Compound 7b] , the value recorded as its IC50 is 38.4

Given item CN(C)CCOc1ccc(NC(=O)c2ccncc2)cc1 [Compound 7a] , the value recorded as its IC50 is 2.49

Given item CN(C)CCOc1ccc(NC(=O)c2ccccn2)cc1 [Compound 7g] , the value recorded as its IC50 is 4.68

Please look at the following compound next.
Given item CN(C)CCOc1ccc(NC(=O)c2cccnc2)cc1 [Compound 7d] , the value recorded as its IC50 is 5.76

====

I'd appreciate it if you could supply logP values for the items below.
RUN_DESCRIPTION: Octanol/buffer partition coefficient by shake flask method
Type: physicochemical
MEASUREMENT_SETUP: octanol/phosphate buffer solution (PBS); octanol/buffer (PBS) pH 7.4, shake-flask, 37 °C, HPLC
Answers are plain numbers.

Some compounds with recorded logP:
Given item CN(C)CCOc1ccccc1NC(=O)c1ccccc1 , the value recorded as its logP is 1.23

Given item CN(C)CCOc1ccc(NC(=O)c2cccnc2)cc1 , the value recorded as its logP is 1.33

Given item CN(C)CCOc1ccccc1NC(=O)c1ccccn1 , the value recorded as its logP is 1.18

Given item CN(C)CCOc1cccc(NC(=O)c2ccccc2)c1 , the value recorded as its logP is 1.18

Given item CN(C)CCOc1ccccc1NC(=O)c1cccnc1 , the value recorded as its logP is 1.42

Consider the following items and state reported logP for each.
1. CN(C)CCOc1ccccc1NC(=O)c1ccncc1
2. CN(C)CCOc1ccc(NC(=O)c2ccccn2)cc1
3. CN(C)CCOc1cccc(NC(=O)c2ccccn2)c1
4. CN(C)CCOc1ccc(NC(=O)c2ccncc2)cc1
5. CN(C)CCOc1cccc(NC(=O)c2ccncc2)c1
6. CN(C)CCOc1cccc(NC(=O)c2cccnc2)c1

1: 1.37; 2: 1.14; 3: 1.37; 4: 1.26; 5: 1.31; 6: 1.37

====

I'd appreciate it if you could supply Selectivity for AChE, IC50 (BChE)/IC50 (AChE) values for the items below.
MEASUREMENT_TARGET: AChE (Homo sapiens, UniProt P22303)
RUN_DESCRIPTION: biochemical
MEASUREMENT_SETUP: ratio IC50 (BChE)/IC50 (AChE)
Description: AChE/BChE activity assays were carried out by Ellman method with slight modification. Each compound was dissolved in Tween 80 and diluted with water to various concentrations immediately before use. […] The IC50 values were calculated by Bliss method and expressed as Mean ± SD of the replicates.

Given item CN(C)CCOc1ccccc1NC(=O)c1ccncc1 , the value recorded as its Selectivity for AChE, IC50 (BChE)/IC50 (AChE) is <0.0892

Given item CN(C)CCOc1ccccc1NC(=O)c1ccccn1 , the value recorded as its Selectivity for AChE, IC50 (BChE)/IC50 (AChE) is <0.0549

Please look at the following molecule next.
Given item CN(C)CCOc1ccccc1NC(=O)c1ccccc1 , the value recorded as its Selectivity for AChE, IC50 (BChE)/IC50 (AChE) is <0.0359
